- Target System: P70S6K (T412E mutant) (Homo sapiens (Human), UniProt P23443, T412E)
- Sequence (P23443 whole entry T412E): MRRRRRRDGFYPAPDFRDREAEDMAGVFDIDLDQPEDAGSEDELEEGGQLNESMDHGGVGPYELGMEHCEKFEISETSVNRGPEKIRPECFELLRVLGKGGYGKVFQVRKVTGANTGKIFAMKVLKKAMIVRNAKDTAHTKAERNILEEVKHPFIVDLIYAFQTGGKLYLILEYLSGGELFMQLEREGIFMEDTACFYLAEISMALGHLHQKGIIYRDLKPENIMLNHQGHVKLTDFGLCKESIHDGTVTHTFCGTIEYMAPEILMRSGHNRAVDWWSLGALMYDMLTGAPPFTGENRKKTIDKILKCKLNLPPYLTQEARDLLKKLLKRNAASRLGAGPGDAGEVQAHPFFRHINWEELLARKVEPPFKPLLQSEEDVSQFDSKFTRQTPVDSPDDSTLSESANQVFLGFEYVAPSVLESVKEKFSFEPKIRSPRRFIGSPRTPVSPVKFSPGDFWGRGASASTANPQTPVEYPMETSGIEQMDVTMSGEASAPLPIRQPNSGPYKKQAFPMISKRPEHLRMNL
- Procedure Text: P70S6K enzyme assay
- Condition Label: 3 nM P70S6K T412E mutant, 24 μM ATP, 1 μM FITC-AHA-AKRRRLSSLRA-OH substrate peptide, 90 min at 25° C.
pIC50: −log10 of the molar value.
// false strictly below 7 in pIC50; true otherwise

State whether the measured pIC50 reaches 7, counting equality as reaching it, for CCc1c(N)ncnc1N1CCN([C@@H](CN)c2ccc(Cl)cc2)CC1
false

State whether the measured pIC50 reaches 7, counting equality as reaching it, for COC(=O)Cn1cc(-c2c(N)ncnc2N2CCN(C(CN3CCC3)c3cccc(C#N)c3)CC2)cn1 (centres unmarked)
false

State whether the measured pIC50 reaches 7, counting equality as reaching it, for COc1ccc(C(CN2CCC2)N2CCN(c3ncnc(N)c3-c3ccc(F)cc3)CC2)cc1F (centres unmarked)
false

State whether the measured pIC50 reaches 7, counting equality as reaching it, for NCC(c1ccc(C(F)(F)F)cc1)C1CCN(c2ncnc(N)c2-c2cn[nH]c2)CC1 (centres unmarked)
true

State whether the measured pIC50 reaches 7, counting equality as reaching it, for NCC(c1ccc(F)cc1)N1CCN(c2ncnc(N)c2-c2ccc(F)cc2)CC1 (centres unmarked)
true

State whether the measured pIC50 reaches 7, counting equality as reaching it, for Nc1ncnc(N2CCN(C(CN3CCCC3)c3cccc(C(F)(F)F)c3)CC2)c1Br (centres unmarked)
false

State whether the measured pIC50 reaches 7, counting equality as reaching it, for COC(=O)c1ccc([C@H](CN2CCC2)N2CCN(c3ncnc(N)c3-c3ccc(F)cc3)CC2)cc1
false

----------
- Target System: P70S6K (T412E mutant) (Homo sapiens (Human), UniProt P23443, T412E)
- Procedure Text: P70S6K enzyme assay
- Condition Label: 3 nM P70S6K T412E mutant, 24 μM ATP, 1 μM FITC-AHA-AKRRRLSSLRA-OH substrate peptide, 90 min at 25° C.
Measured Attribute: IC50 (nM)
One number for each entry, in nM.

Consider the reported IC50 for these molecules:
>>> print(df.to_string())
                                   molecule  scale_unit  measurement
0  COC(=O)c1ccc(-c2c(N)ncnc2N2CCN(C(CN(C)C)c3ccc(C(F)(F)F)cc3)CC2)cc1 (stereo not shown)          nM           12
1  Nc1ncnc(N2CCN(C(CN3CCC3)c3ccc(C(F)(F)F)c(F)c3)CC2)c1-c1cn[nH]c1 (stereo not shown)          nM          550
2  N#Cc1c(N)ncnc1N1CCC(N)(C(=O)N[C@@H](CCO)c2ccc(C(F)(F)F)cc2)CC1          nM        18000
3  CCOc1c(N)ncnc1N1CCN(C(CN)c2ccc(C(F)(F)F)cc2)CC1 (stereo not shown)          nM         48.5
4  NC(=O)C[C@H](NC(=O)C1(N)CCN(c2ncnc(N)c2Cl)CC1)c1ccc(Cl)cc1          nM          820

Give IC50 for each listed item.
1. Nc1ncnc(N2CCN([C@@H](CN3CCC3)c3cccc(F)c3)CC2)c1-c1ccc(F)cc1
2. Nc1ncnc(N2CCN(C(CN3CCCC3)c3cccc(C(F)(F)F)c3)CC2)c1-c1ccc(F)cc1 (stereo not shown)
3. NCC(c1ccc(C(F)(F)F)cc1)N1CCN(c2ncnc(N)c2OCC(F)(F)F)CC1 (stereo not shown)
4. Nc1ncnc(N2CCN(C(CN3CCC3)c3ccc(-n4ccnc4)cc3)CC2)c1-c1ccc(F)cc1 (stereo not shown)
5. N#Cc1ccc([C@@H](CN2CCC2)N2CCN(c3ncnc(N)c3-c3cn[nH]c3)CC2)cc1

1. 920
2. 82
3. 48.5
4. 290
5. 6700

----------
- Target System: P70S6K (T412E mutant) (Homo sapiens (Human), UniProt P23443, T412E)
- Procedure Text: P70S6K enzyme assay
- Assay type: biochemical
- Condition Label: 3 nM P70S6K T412E mutant, 24 μM ATP, 1 μM FITC-AHA-AKRRRLSSLRA-OH substrate peptide, 90 min at 25° C.
Measured Attribute: pIC50
Numbers only, as −log10 of the molar value.

Consider the reported pIC50 for these compounds:
                                   compound  measured_attribute  measurement
0  NCC(c1ccc(C(F)(F)F)cc1)N1CCN(c2ncnc(N)c2-c2cc[nH]c2)CC1 (centres unmarked)               pIC50         8.24
1  CN(C)CC(c1ccc(C(F)(F)F)cc1)N1CCN(c2ncnc(N)c2-c2ccc(F)cc2)CC1 (centres unmarked)               pIC50         8.31
2  COC(=O)c1ccc(C(CN2CCC2)N2CCN(c3ncnc(N)c3-c3ccc(F)cc3)CC2)cc1 (centres unmarked)               pIC50         6.85
3  CCc1c(N)ncnc1N1CCN(C(CN)c2ccc(Cl)cc2)CC1 (centres unmarked)               pIC50         7.16

Give pIC50 for each listed item.
1. CC(c1ccc(Cl)cc1O)N1CCN(c2ncnc(N)c2-c2ccc(F)cc2)CC1 (centres unmarked)
2. N#Cc1c(N)ncnc1N1CCC(N)(C(=O)N[C@@H](CCO)c2ccc(Cl)cc2)CC1
3. CN(C)CC(c1ccc(C(F)(F)F)cc1)N1CCN(c2ncnc(N)c2-c2ccc(N)nc2)CC1 (centres unmarked)

1: 7.48; 2: 7.01; 3: 7.16

----------
- Target System: P70S6K (T412E mutant) (Homo sapiens (Human), UniProt P23443, T412E)
- Procedure Text: P70S6K enzyme assay
- Condition Label: 3 nM P70S6K T412E mutant, 24 μM ATP, 1 μM FITC-AHA-AKRRRLSSLRA-OH substrate peptide, 90 min at 25° C.
pIC50: −log10 of the molar value.
// not met strictly below 7 in pIC50; met otherwise

State whether the measured pIC50 reaches 7, counting equality as reaching it, for Nc1ncnc(N2CCC(N)(CNC(=O)c3ccc(F)cc3F)C2)c1-c1ccc(C(F)(F)F)cc1 (centres unmarked)
met

----------
Field: log10 IC50. Provide a value for each of the compounds that follow.
- Target System: P70S6K (T412E mutant) (Homo sapiens (Human), UniProt P23443, T412E)
- Procedure Text: P70S6K enzyme assay
- Type: biochemical
- Condition Label: 3 nM P70S6K T412E mutant, 24 μM ATP, 1 μM FITC-AHA-AKRRRLSSLRA-OH substrate peptide, 90 min at 25° C.
# log10 transformed; quantity=IC50; unit=nM

Consider the reported log10 IC50 for these compounds:
>>> print(df.to_string())
                                   compound                             target_system  measurement
0  Nc1ncnc(N2CCC(N)(CNC(=O)c3ccc(F)cc3F)CC2)c1-c1ccc(F)cc1 [Example 208]  P70S6K (T412E mutant) (Homo sapiens (Human), UniProt P23443, T412E)         1.66
1  Nc1ncnc(N2CCN(C(CN3CCCC3)c3ccc(F)cc3)CC2)c1-c1ccc(F)cc1 (stereo in doubt) [Example 83]  P70S6K (T412E mutant) (Homo sapiens (Human), UniProt P23443, T412E)         3.00
2  Nc1ncnc(N2CCN(C(CN3CCCC3)c3ccc(F)cc3)CC2)c1-c1ccc(F)cc1 (stereo not shown) [Example 75]  P70S6K (T412E mutant) (Homo sapiens (Human), UniProt P23443, T412E)         1.18
3  NCC(c1ccc(C(F)(F)F)cc1)N1CCN(c2ncnc(N)c2CN2CC(F)C2)CC1 (stereo not shown) [Example 45]  P70S6K (T412E mutant) (Homo sapiens (Human), UniProt P23443, T412E)         2.32
4  CCOC(=O)Cn1cc(-c2c(N)ncnc2N2CCN(C(CN3CCC3)c3ccc4c(c3)CCCC4)CC2)cn1 (stereo not shown) [Example 119]  P70S6K (T412E mutant) (Homo sapiens (Human), UniProt P23443, T412E)         4.34

Give log10 IC50 for each listed item.
1. Nc1ncnc(N2CCN(C(CN3CCCCC3)c3cccc(F)c3)CC2)c1-c1ccc(F)cc1 (stereo not shown) [Example 64]
2. Nc1ncnc(N2CCC(C(O)c3ccc(F)cc3)CC2)c1-c1ccc(F)cc1 (stereo not shown) [Example 140]
3. C[C@H](c1ccccc1)[C@H](CN)N1CCN(c2ncnc(N)c2-c2ccc(F)cc2)CC1 [Example 171]
4. COc1ccc([C@H](CN2CCC2)N2CCN(c3ncnc(N)c3-c3ccc(F)cc3)CC2)cc1F [Example 104]
5. Cc1ccc(C(CN2CCC2)N2CCN(c3ncnc(N)c3-c3cn[nH]c3)CC2)c(F)c1F (stereo not shown) [Example 100]

1. 1.70
2. 0.66
3. 1.86
4. 2.96
5. 2.95

Reference for the values: patent US9321760B2
